These entries and their values trace back to patent US11834453B2.

Overview of recorded log10 of IC50 for various compounds
MEASUREMENT TARGET: ErbB2 with Exon 20 YVMA insertion (HER2-YVMA) (Homo sapiens (Human), UniProt P04626, INS775YVMA)
Sequence (P04626 other isoform, or with tags, fused parts or gaps ins YVMA behind 775): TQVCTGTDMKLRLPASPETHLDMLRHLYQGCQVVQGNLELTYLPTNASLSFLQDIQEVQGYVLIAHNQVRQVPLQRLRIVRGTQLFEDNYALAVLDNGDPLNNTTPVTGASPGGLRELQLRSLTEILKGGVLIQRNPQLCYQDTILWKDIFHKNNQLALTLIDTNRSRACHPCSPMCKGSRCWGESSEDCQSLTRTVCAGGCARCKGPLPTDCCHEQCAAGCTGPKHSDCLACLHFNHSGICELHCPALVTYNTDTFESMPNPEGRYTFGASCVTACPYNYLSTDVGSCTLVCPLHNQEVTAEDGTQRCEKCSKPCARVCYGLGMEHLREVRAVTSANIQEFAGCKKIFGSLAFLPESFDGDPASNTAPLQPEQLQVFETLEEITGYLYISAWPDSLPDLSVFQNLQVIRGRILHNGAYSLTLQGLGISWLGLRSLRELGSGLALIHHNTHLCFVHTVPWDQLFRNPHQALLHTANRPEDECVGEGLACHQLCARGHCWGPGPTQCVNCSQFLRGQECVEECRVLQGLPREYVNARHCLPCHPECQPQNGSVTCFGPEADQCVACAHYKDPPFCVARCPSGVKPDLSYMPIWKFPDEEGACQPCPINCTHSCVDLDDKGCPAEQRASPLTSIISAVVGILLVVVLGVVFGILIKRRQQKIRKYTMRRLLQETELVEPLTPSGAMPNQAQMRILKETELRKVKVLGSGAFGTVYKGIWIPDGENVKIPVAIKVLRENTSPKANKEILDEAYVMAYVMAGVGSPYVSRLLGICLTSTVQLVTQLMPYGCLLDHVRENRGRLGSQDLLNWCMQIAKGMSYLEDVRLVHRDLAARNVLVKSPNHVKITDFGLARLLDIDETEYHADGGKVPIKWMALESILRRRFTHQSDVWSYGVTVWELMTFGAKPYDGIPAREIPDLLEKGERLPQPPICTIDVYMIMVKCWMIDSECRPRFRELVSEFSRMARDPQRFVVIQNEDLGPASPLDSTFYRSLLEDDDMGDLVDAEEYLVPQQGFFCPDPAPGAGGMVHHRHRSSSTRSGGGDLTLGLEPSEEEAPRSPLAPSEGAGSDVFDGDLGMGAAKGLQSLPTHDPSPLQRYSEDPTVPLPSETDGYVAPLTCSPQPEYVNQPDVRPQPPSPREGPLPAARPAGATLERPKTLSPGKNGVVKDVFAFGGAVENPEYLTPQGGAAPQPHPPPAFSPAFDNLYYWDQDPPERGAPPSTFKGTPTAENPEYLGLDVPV
EXPERIMENT NOTES: Cellular phosphorylation assay, constitutive ErbB2 phosphorylation (Y1196) in engineered NIH 3T3 cells, Assay 4
Remember, log10 of IC50, in nM.

[[record]]
compound = "Cc1cc(Nc2ncnc3cnc(N(C)[C@@H]4CCOC4)nc23)ccc1Oc1ccc2c(c1)ncn2C"
numeric_result = 1.56

[[record]]
compound = "Cc1cc(Nc2ncnc3cnc(N4CCC[C@@H]5COC[C@@H]54)nc23)ccc1Oc1ccc2c(c1)ncn2C"
numeric_result = 1.90

[[record]]
compound = "Cn1cnc2cc(Oc3ccc(Nc4ncnc5cnc(N6CCC7(CCOC7)C6)nc45)cc3Cl)ccc21 (centres unmarked)"
numeric_result = 1.58


Here is the next item to consider.
log10 of IC50 in this record for Cc1cc(Nc2ncnc3cnc(N4CCN(CC(F)F)CC4)nc23)ccc1Oc1ccc2c(c1)ncn2C : 1.73

###

Overview of recorded pIC50 for various molecules
MEASUREMENT TARGET: ErbB2 insYVMA (HER2-YVMA, SEQ ID NO: 2) (Homo sapiens, UniProt P04626, INS775YVMA/P1170A)
EXPERIMENT NOTES: biochemical
EXPERIMENTAL CONTEXT: ErbB2 insYVMA enzyme assay; read-out: Assay 1 IC50
pIC50 is defined as minus the log10 of a concentration measured in mol/L.

Solved entries (count: 3):
[[record]]
mol_smiles = "Cc1cc(Nc2ncnc3cnc(N4CCC[C@@](C)(O)C4)nc23)c(F)cc1Oc1ccc2c(c1)ncn2C"
numeric_result = 7.38

[[record]]
mol_smiles = "Cc1cc(Nc2ncnc3cnc(N4CC(C(C)(C)O)C4)nc23)ccc1Oc1ccc2c(c1)ncn2C"
numeric_result = 7.27

[[record]]
mol_smiles = "Cc1cc(Nc2ncnc3cnc(N4CCN[C@H](C)C4)nc23)ccc1Oc1ccn2ncnc2c1"
numeric_result = 7.43


pIC50 in this record for CCOc1ncc2ncnc(Nc3ccc(Oc4ccc5c(c4)ncn5C)c(C)c3)c2n1 : 7.45

pIC50 in this record for Cc1cc(Nc2ncnc3cnc(N[C@@H](C)COC(F)(F)F)nc23)ccc1Oc1ccc2c(c1)ncn2C : 6.71

pIC50 in this record for Cc1cc(Nc2ncnc3cnc(N4CC[C@@H](S(C)(=O)=O)C4)nc23)ccc1Oc1ccc2c(c1)ncn2C : 7.61

pIC50 in this record for Cc1cc(Nc2ncnc3cnc(N(C)C)nc23)ccc1Oc1ccc2scnc2c1 : 7.37

###

MEASUREMENT TARGET: ErbB2 insYVMA (HER2-YVMA, SEQ ID NO: 2) (Homo sapiens, UniProt P04626, INS775YVMA/P1170A)
EXPERIMENT NOTES: biochemical
EXPERIMENTAL CONTEXT: ErbB2 insYVMA enzyme assay; read-out: Assay 1 IC50
ENDPOINT LABEL: IC50 (nM)
The reply should be a number in nM, with the unit left off.

[[record]]
molecule = "Cc1cc(Nc2ncnc3cnc(N4CCOC5CC54)nc23)ccc1Oc1ccc2c(c1)ncn2C (racemic)"
measurement_target = "ErbB2 insYVMA (HER2-YVMA, SEQ ID NO: 2) (Homo sapiens, UniProt P04626, INS775YVMA/P1170A)"
unit_spec = "nM"
numeric_result = 19.4

[[record]]
molecule = "Cc1cc(Nc2ncnc3cnc(N4CCC[C@](C)(O)C4)nc23)ccc1Oc1ccc2c(c1)ncn2C"
measurement_target = "ErbB2 insYVMA (HER2-YVMA, SEQ ID NO: 2) (Homo sapiens, UniProt P04626, INS775YVMA/P1170A)"
unit_spec = "nM"
numeric_result = 20.5


Here is the next item to consider.
IC50 in this record for Cn1cnc2cc(Oc3ccc(Nc4ncnc5cnc(N6C[C@@H]7[C@@H](C#N)[C@@H]7C6)nc45)cc3Cl)ccc21 : 63.3

###

MEASUREMENT TARGET: BCRP (Homo sapiens (Human))
Sequence (Q9UNQ0 whole entry): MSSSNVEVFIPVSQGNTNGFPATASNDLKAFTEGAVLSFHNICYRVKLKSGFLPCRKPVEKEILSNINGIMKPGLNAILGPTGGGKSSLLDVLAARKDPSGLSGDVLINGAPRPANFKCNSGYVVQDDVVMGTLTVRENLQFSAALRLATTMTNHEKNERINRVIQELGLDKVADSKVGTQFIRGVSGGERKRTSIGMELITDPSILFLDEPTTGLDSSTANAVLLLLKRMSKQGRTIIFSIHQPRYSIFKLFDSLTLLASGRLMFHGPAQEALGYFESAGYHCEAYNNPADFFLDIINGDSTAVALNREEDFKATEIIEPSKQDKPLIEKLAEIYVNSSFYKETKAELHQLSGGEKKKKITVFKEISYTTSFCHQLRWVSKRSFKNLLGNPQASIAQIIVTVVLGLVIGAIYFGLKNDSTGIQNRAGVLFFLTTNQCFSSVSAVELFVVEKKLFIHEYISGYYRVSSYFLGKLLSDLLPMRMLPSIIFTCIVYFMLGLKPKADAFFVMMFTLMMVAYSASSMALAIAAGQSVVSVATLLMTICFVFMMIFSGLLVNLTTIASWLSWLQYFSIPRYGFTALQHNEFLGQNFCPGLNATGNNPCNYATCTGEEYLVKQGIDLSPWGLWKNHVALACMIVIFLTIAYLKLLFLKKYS
EXPERIMENT NOTES: BCRP transfected MDCKII canine Mdr1 knockout permeability/efflux, Assay 9
EXPERIMENTAL CONTEXT: dog, Assay 9 Pe Ratio, efflux ratio Papp(B-A)/Papp(A-B), BCRP transfected MDCKII canine Mdr1 knockout
ENDPOINT LABEL: efflux ratio at 2 h, 1 μM
No unit in the answer, please; the number alone is enough.

[[record]]
compound = "Cc1cc(Nc2ncnc3cnc(N4CC[C@](C)(O)C4)nc23)ccc1Oc1ccc2c(c1)ncn2C [Example 179]"
numeric_result = 15.3

[[record]]
compound = "Cc1cc(Nc2ncnc3cnc(N(C)[C@H]4C[C@](C)(O)C4)nc23)ccc1Oc1ccc2c(c1)ncn2C [Example 171]"
numeric_result = 8.6


Here is the next item to consider.
efflux ratio at 2 h, 1 μM in this record for Cc1cc(Nc2ncnc3cnc(N4CCC[C@@](C)(O)C4)nc23)c(F)cc1Oc1ccc2c(c1)ncn2C [Example 218] : 2.4

###

These compounds were tested on ErbB2 WT (Homo sapiens (Human)); log10 IC50 is the recorded read-out.
Sequence (P04626 23-1255): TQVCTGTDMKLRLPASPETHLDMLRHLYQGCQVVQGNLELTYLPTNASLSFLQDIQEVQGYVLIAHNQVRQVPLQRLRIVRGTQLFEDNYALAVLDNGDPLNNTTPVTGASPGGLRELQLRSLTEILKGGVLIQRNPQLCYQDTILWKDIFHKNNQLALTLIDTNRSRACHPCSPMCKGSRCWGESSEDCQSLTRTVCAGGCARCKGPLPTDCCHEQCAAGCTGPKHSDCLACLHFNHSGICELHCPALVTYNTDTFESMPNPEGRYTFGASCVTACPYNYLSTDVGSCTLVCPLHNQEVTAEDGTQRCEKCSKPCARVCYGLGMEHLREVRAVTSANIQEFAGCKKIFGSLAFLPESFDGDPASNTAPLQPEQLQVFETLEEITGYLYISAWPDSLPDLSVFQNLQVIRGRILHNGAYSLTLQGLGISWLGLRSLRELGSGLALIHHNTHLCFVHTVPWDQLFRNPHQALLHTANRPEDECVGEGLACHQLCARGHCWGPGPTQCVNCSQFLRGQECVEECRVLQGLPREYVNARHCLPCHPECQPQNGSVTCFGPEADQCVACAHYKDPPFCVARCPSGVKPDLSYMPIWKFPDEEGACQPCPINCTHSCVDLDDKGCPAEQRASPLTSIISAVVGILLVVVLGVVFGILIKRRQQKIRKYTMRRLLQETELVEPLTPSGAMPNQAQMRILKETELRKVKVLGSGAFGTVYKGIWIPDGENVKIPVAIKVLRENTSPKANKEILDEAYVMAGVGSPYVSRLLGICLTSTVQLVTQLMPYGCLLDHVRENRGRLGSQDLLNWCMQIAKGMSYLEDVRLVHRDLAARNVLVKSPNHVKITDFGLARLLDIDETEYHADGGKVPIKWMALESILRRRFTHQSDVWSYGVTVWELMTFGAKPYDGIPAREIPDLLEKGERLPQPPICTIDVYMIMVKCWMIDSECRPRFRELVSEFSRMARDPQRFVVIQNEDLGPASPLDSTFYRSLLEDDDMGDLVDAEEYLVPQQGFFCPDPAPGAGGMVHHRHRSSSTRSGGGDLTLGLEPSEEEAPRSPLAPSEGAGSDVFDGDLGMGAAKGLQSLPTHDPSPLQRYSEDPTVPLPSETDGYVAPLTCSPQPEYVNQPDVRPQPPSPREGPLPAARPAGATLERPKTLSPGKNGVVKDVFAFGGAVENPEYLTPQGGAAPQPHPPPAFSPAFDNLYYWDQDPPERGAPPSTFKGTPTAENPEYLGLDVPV
Remember, log10 of IC50, in nM.

[[record]]
compound = "Cc1cc(Nc2ncnc3cnc(N4CCC(C)(O)CC4)nc23)ccc1Oc1ccn2ncnc2c1 [Example 120]"
numeric_result = 1.28

[[record]]
compound = "CCOc1ncc2ncnc(Nc3ccc(Oc4ccc5scnc5c4)c(C)c3)c2n1 [Example 46]"
numeric_result = 2.88

[[record]]
compound = "Cc1cc(Nc2ncnc3cnc(N4CCN[C@H](C)C4)nc23)ccc1Oc1ccn2ncnc2c1 [Example 352]"
numeric_result = 2.12

[[record]]
compound = "Cn1cnc2cc(Oc3ccc(Nc4ncnc5cnc(N6CCN[C@@H](C(F)(F)F)C6)nc45)cc3Cl)ccc21.O=C(O)C(F)(F)F [Example 146, 2,2,2-trifluoroacetate]"
numeric_result = 1.76

[[record]]
compound = "Cc1cc(Nc2ncnc3cnc(N4CC5CC(C4)O5)nc23)ccc1Oc1ccc2c(c1)ncn2C.O=C(O)C(F)(F)F [Example 69, 2,2,2-trifluoroacetate]"
numeric_result = 2.21

[[record]]
compound = "CNc1ncc2ncnc(Nc3ccc(Oc4ccc5csnc5c4)c(C)c3)c2n1 [Example 241]"
numeric_result = 2.09


Here is the next item to consider.
Entry Cc1cc(Nc2ncnc3cnc(N4CCC45CCOC5)nc23)ccc1Oc1ccc2c(c1)ncn2C (racemic) [Example 111] ; assay system ErbB2 WT (Homo sapiens (Human)); log10 IC50 recorded at 1.38

###

pIC50: −log10 of the molar value.
These molecules were tested on EGFR (Homo sapiens (Human)); pIC50 is the recorded read-out.

[[record]]
mol_smiles = "Cc1cnc(-c2ncc3ncnc(Nc4ccc(Oc5ccc6c(c5)ncn6C)c(C)c4)c3n2)o1"
result = "≤ 5.00"

[[record]]
mol_smiles = "Cc1cc(Nc2ncnc3cnc(N4CCC(C)(O)CC4)nc23)c(Cl)cc1Oc1ccc2c(c1)ncn2C"
result = "≤ 5.00"

[[record]]
mol_smiles = "CON1CCN(c2ncc3ncnc(Nc4ccc(Oc5ccn6ncnc6c5)c(Cl)c4)c3n2)CC1"
result = "≤ 5.00"


Here is the next item to consider.
Entry Cc1cc(Nc2ncnc3cnc(N4CCC5(COC5)C4)nc23)ccc1Oc1ccc2c(c1)ncn2C ; assay system EGFR (Homo sapiens (Human)); pIC50 recorded at ≤ 5.00

###

MEASUREMENT TARGET: ErbB2 with Exon 20 YVMA insertion (HER2-YVMA) (Homo sapiens (Human), UniProt P04626, INS775YVMA)
EXPERIMENT NOTES: Cellular phosphorylation assay, constitutive ErbB2 phosphorylation (Y1196) in engineered NIH 3T3 cells, Assay 4
ENDPOINT LABEL: IC50 (nM)
The reply should be a number in nM, with the unit left off.

Solved entries (count: 2):
[[record]]
molecule = "Cc1cc(Nc2ncnc3cnc(N(C)[C@@H]4CCCOC4)nc23)ccc1Oc1ccn2ncnc2c1"
numeric_result = 94.6

[[record]]
molecule = "Cc1cc(Nc2ncnc3cnc(N)nc23)ccc1Oc1ccc2c(c1)ncn2C [Example 206, bis(2,2,2-trifluoroacetate)]"
numeric_result = 24.8


IC50 in this record for Cn1cnc2cc(Oc3ccc(Nc4ncnc5cnc(N6CCN[C@H](C(F)(F)F)C6)nc45)cc3Cl)ccc21 : 44.2

###

MEASUREMENT TARGET: MDR1 (P-gp) (Homo sapiens (Human))
Sequence (P08183 whole entry): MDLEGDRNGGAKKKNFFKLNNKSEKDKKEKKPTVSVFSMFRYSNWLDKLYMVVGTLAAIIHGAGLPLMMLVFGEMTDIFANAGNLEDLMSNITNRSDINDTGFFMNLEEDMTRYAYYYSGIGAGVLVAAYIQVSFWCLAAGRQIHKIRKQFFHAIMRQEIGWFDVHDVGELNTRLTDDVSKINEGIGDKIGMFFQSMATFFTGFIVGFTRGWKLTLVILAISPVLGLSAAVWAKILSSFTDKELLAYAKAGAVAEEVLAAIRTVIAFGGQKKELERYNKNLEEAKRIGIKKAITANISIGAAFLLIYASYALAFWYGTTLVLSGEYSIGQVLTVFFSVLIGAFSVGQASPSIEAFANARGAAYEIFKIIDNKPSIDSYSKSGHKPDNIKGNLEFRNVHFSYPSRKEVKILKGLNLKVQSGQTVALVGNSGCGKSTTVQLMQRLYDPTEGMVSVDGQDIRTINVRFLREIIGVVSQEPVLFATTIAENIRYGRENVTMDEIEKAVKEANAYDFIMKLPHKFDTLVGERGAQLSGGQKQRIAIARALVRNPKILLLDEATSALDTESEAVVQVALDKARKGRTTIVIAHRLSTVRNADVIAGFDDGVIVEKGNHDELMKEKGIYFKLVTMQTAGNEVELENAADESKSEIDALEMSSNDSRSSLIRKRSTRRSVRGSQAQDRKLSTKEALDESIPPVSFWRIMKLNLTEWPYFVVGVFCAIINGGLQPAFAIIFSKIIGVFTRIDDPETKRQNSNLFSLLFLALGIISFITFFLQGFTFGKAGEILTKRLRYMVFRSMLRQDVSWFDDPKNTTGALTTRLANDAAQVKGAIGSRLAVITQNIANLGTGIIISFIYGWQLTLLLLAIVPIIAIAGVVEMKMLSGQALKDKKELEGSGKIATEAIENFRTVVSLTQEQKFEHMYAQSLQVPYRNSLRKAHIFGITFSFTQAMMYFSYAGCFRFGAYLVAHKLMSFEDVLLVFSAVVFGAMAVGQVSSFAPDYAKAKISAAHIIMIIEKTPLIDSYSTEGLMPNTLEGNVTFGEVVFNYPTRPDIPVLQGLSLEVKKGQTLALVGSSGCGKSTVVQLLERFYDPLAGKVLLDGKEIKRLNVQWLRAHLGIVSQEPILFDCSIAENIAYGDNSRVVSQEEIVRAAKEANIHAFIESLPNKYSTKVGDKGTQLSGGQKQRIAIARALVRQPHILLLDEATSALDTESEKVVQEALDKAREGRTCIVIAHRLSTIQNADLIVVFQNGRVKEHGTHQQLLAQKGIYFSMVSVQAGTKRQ
EXPERIMENT NOTES: MDR1 transfected LLC-PK1 permeability/efflux, Assay 6
EXPERIMENTAL CONTEXT: pig, LLC-PK1, Assay 6 Pe Ratio, efflux ratio Papp(B-A)/Papp(A-B), MDR1 transfected LLC-PK1
Param threshold (2) applies to efflux ratio at 2 h, 1 μM; output rule met when value >= threshold, rule not met when value < threshold.

Take a look at these entries with their results.
[[record]]
compound = "Cc1cc(Nc2ncnc3cnc(N4C[C@@H]5CCCN5C4=O)nc23)ccc1Oc1ccc2c(c1)ncn2C"
answer_label = "rule met"

[[record]]
compound = "Cc1cc(Nc2ncnc3cnc(N4CC(C)(O)CO4)nc23)ccc1Oc1ccc2c(c1)ncn2C (stereo not drawn)"
answer_label = "rule met"

[[record]]
compound = "Cc1cc(Nc2ncnc3cnc(N4CCOC(C(F)F)C4)nc23)ccc1Oc1ccc2c(c1)ncn2C (stereo not drawn)"
answer_label = "rule not met"

[[record]]
compound = "Cc1cc(Nc2ncnc3cnc(-c4cnco4)nc23)ccc1Oc1ccc2c(c1)ncn2C"
answer_label = "rule not met"

[[record]]
compound = "Cc1cc(Nc2ncnc3cnc(N4CCC[C@H]4C(F)(F)F)nc23)ccc1Oc1ccc2c(c1)ncn2C"
answer_label = "rule not met"


Data request: Form field: efflux ratio at 2 h, 1 μM at least 2? Entry: Cc1cc(Nc2ncnc3cnc(N(C)C[C@@H](C)O)nc23)ccc1Oc1ccc2c(c1)ncn2C
Data returned: rule met

Data request: Form field: efflux ratio at 2 h, 1 μM at least 2? Entry: Cc1cc(Nc2ncnc3cnc(NC4COC4)nc23)ccc1Oc1ccc2c(c1)ncn2C
Data returned: rule met

Data request: Form field: efflux ratio at 2 h, 1 μM at least 2? Entry: Cc1cc(Nc2ncnc3cnc(N4CCCC45COC5)nc23)ccc1Oc1ccc2c(c1)ncn2C
Data returned: rule met

Data request: Form field: efflux ratio at 2 h, 1 μM at least 2? Entry: Cc1cc(Nc2ncnc3cnc(N4CC5COC(C5)C4)nc23)ccc1Oc1ccc2c(c1)ncn2C (stereo not drawn)
Data returned: rule met

Data request: Form field: efflux ratio at 2 h, 1 μM at least 2? Entry: Cc1cc(Nc2ncnc3cnc(N4CCOCC4)nc23)ccc1Oc1cc(F)c2c(c1)ncn2C.O=C(O)C(F)(F)F
Data returned: rule not met

Data request: Form field: efflux ratio at 2 h, 1 μM at least 2? Entry: Cc1cc(Nc2ncnc3cnc(N4CCN(C)C4=O)nc23)ccc1Oc1ccc2c(c1)ncn2C
Data returned: rule met
